Entries and their EC50 values follow.
# ASSAY EXPLANATION: growth suppression of PTEN-null colon cells, dose response, cell-based, HCT116 PTEN knockout (AID 1047);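 note: HCT116 colon tumor cells with PTEN knocked out; cells exposed to compound for 60 hours before readout; potency for loss of cell viability measured by luminescence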
# Assay type: functional
Calls of active or inactive are those of the source.

STRUCTURE NOTATION	EC50
Cc1ccc(C(=O)c2c(C)oc3c2C(=O)C(=O)c2ccccc2-3)cc1	3.11 µM (active)
Cc1ccc(NC(=S)c2nc3ccccc3[nH]2)cc1	26.3 µM (active)
CN(C)c1ncc(C2=C(Cl)C(=O)C(N3CCCC3)=C(Cl)C2=O)s1	5.41 µM (active)
CCn1c(/C=C/Nc2ccccc2)[n+](CC)c2cc(Cl)c(Cl)cc21	2.4 µM (active)

----------
# SYSTEM TESTED: DNA dC->dU-editing enzyme APOBEC-3G (Homo sapiens);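 note: Dose-response counterscreen measuring inhibition of APOBEC3G DNA deaminase activity, run while confirming APOBEC3A inhibitors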
# Sequence (Q9HC16 whole entry): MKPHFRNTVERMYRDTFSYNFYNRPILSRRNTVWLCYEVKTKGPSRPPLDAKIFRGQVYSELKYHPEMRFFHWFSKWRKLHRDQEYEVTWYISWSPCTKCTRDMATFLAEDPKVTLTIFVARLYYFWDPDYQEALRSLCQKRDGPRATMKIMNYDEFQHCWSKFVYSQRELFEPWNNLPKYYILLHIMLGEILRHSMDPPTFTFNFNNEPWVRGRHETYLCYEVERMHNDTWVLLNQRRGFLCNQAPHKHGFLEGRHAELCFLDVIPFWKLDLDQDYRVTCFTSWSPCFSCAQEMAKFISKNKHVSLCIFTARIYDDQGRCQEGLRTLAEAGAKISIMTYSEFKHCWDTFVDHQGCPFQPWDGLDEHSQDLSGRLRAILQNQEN
# Type: functional
Activity calls are given as the source filed them.

MOLECULE	IC50
O=C1C=C(O)CC(c2ccco2)C1 (stereo unspecified)	37.5 µM (active)
CC(=O)Nc1nnc(SCC(=O)NCC2CCCO2)s1 (stereo unspecified)	22.5 µM (active)
CC[N+](CC)(CC)CCOc1ccc(/C=C/c2ccccc2)cc1 [STILONIUM IODIDE]	2.57 µM (active)
O=C(CSc1n[nH]c(-c2ccncc2)n1)Nc1ccc(Cl)c(Cl)c1	9.18 µM (active)
N#Cc1ccccc1CN1C(=O)S/C(=C/c2cccn2-c2cccc(C(=O)O)c2)C1=O	37 µM (active)
CCCCCCCn1ccc(=N)cc1	2.51 µM (active)

----------
A set of compounds tested on Cytochrome P450 2C9 (Homo sapiens, UniProt P11712), with measured AC50:

STRUCTURE NOTATION	AC50
CCc1ccc(NC(=O)CSc2nc3cc(C(=O)OC)ccc3c(=O)n2Cc2ccco2)cc1	28.2 µM (inconclusive)
COc1ccc2[nH]c3c(NCCCN4CCCC4=O)ncnc3c2c1	3.98 µM (inconclusive)
CSc1nsc(SC)c1NC(=O)Nc1ccccn1	22.4 µM (inconclusive)

----------
# SYSTEM TESTED: Genome polyprotein (dengue virus type 2)
# ASSAY EXPLANATION: Dengue-2 NS5 methyltransferase inhibitors, primary screen, biochemical, confirmation dose response (AID 588689)
# Format: functional
Calls of active or inactive are those of the source.
Examples of compounds with documented IC50 follow.
MEASURED ATTRIBUTE: IC50

STRUCTURE NOTATION	ENDPOINT RESULT
Cn1c2ccccc2c2ccc3c(c21)C(=O)C=CC3=O	15.8 µM (active)
Cc1ccc(S(=O)(=O)N2[C@@H](c3cccc(Cl)c3)C(C(=O)O)=CC[C@H]2c2ccc(Cl)c(Cl)c2)cc1	57.9 µM (active)
O=C(O)C1=CC[C@@H](c2ccc(Cl)cc2)N(S(=O)(=O)c2ccc(Cl)cc2)[C@H]1c1ccc(Br)cc1	36.5 µM (active)
CSc1nnc(-c2ccccc2/N=C/c2c(C)nn(-c3ccc4ccccc4c3)c2O)c(O)n1	37.5 µM (active)
O=C1c2ccc3c4c(ccc(c24)C(=O)N1CCCCO)C(=O)N(CCCCO)C3=O	> 100 µM (active)
O=[N+]([O-])c1ccc(N/N=C/c2ccc(O)c(O)c2O)c(S(=O)(=O)N2CCOCC2)c1	4.6 µM (active)

----------
pIC50 for assorted compounds
# SYSTEM TESTED: UniProtKB P41145
# Sequence (P41145 whole entry): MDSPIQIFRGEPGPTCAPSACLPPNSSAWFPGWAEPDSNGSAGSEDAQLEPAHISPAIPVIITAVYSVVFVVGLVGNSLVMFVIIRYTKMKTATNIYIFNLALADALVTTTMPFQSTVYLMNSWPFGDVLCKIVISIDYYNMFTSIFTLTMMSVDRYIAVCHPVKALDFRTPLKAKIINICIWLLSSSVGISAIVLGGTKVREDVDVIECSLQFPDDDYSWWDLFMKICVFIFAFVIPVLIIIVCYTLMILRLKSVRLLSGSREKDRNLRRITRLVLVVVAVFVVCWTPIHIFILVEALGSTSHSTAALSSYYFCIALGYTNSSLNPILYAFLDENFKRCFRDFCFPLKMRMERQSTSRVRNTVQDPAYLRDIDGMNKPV
# Type: functional
pIC50: −log10 of the molar value.

STRUCTURE NOTATION	pIC50
CCc1nnc(NC(=O)c2cccc(C(=O)Nc3nnc(CC)s3)n2)s1	< 4.49
Cc1ccc(Nc2cc(C)nn2-c2nc(C)cc(O)n2)cc1	< 4.49

----------
IC50 by entry:
# SYSTEM TESTED: Sentrin-specific protease 8 (Homo sapiens);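 note: luminescence read-out of SENP8 inhibition, dose-response confirmation following an ultra-high-throughput screen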
# Sequence (Q96LD8 whole entry): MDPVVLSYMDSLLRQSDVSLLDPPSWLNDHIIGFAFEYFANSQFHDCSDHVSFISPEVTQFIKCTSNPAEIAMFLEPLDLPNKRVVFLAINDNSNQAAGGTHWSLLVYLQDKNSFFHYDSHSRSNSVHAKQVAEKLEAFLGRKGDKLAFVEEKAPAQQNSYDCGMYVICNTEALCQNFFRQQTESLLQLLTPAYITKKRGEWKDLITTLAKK
# Assay type: functional
Calls of active or inactive are those of the source.

STRUCTURE NOTATION	IC50
Nc1ccc(Br)c2cccnc12	10 µM (active)
Cc1cnc(NC(=O)c2sc3ccccc3c2Cl)s1	2.56 µM (active)
Cc1ccc(C(=O)COC(=O)c2ccc(Cl)c(N)c2)s1	23.1 µM (active)
c1ccc(N=Nc2ccc3cccccc2-3)cc1	22.3 µM (active)
Cc1ccc(S(=O)(=O)NC(=NC(S)=Nc2ccccc2)c2ccccc2)cc1	22.5 µM (active)
Cc1ccc(C(=O)c2c(C)oc3c2C(=O)C(=O)c2ccccc2-3)cc1	7.82 µM (active)
O=C1C(O)=C/C(=N\c2ccccc2O)c2ccccc21	5.23 µM (active)

----------
# SYSTEM TESTED: UniProtKB Q9BQF6
# Sequence (Q9BQF6 whole entry): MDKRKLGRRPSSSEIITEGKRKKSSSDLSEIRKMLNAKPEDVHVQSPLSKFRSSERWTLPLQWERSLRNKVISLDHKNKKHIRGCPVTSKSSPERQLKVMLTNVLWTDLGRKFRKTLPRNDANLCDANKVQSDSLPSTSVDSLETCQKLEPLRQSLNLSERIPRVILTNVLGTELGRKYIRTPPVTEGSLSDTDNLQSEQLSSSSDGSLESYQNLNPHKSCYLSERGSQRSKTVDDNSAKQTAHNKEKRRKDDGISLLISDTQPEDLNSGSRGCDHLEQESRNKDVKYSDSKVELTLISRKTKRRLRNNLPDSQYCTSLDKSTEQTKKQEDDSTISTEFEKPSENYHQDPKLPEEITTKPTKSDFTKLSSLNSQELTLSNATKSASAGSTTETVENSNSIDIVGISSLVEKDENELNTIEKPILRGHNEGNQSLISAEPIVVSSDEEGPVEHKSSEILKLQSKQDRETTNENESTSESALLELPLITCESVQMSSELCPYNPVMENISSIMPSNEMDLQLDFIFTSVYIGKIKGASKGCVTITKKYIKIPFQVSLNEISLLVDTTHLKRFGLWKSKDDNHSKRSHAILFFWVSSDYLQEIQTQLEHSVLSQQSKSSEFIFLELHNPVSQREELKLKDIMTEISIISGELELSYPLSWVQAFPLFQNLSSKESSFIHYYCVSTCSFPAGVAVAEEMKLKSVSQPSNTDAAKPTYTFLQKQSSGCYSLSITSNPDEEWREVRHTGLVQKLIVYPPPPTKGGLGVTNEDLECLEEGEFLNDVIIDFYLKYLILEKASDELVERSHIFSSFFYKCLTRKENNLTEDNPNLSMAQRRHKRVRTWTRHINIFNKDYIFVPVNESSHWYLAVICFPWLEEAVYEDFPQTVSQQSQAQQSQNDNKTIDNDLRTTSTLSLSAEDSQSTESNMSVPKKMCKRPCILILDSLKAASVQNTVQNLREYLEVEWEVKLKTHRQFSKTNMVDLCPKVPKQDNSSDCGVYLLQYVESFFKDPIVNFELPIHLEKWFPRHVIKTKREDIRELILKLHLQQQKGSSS
# Assay type: functional
The source made the active and inactive calls.
MEASURED ATTRIBUTE: IC50

STRUCTURE NOTATION	SYSTEM TESTED	ENDPOINT RESULT
Nc1ccc(Br)c2cccnc12	UniProtKB Q9BQF6	9.77 µM (active)
Cc1ccc(C(=O)COC(=O)c2ccc(Cl)c(N)c2)s1	UniProtKB Q9BQF6	5.51 µM (active)
O=C1C(O)=C/C(=N\c2ccccc2O)c2ccccc21	UniProtKB Q9BQF6	5.84 µM (active)
Cc1ccc(S(=O)(=O)NC(=NC(S)=Nc2ccccc2)c2ccccc2)cc1	UniProtKB Q9BQF6	4.8 µM (active)
c1ccc(N=Nc2ccc3cccccc2-3)cc1	UniProtKB Q9BQF6	4.59 µM (active)
Cc1ccc(C(=O)c2c(C)oc3c2C(=O)C(=O)c2ccccc2-3)cc1	UniProtKB Q9BQF6	6.7 µM (active)
Cc1cnc(NC(=O)c2sc3ccccc3c2Cl)s1	UniProtKB Q9BQF6	2.6 µM (active)

----------
Recorded EC50 values for a group of compounds are listed next.
# SYSTEM TESTED: UniProtKB Q9QUQ5
# Sequence (Q9QUQ5 whole entry): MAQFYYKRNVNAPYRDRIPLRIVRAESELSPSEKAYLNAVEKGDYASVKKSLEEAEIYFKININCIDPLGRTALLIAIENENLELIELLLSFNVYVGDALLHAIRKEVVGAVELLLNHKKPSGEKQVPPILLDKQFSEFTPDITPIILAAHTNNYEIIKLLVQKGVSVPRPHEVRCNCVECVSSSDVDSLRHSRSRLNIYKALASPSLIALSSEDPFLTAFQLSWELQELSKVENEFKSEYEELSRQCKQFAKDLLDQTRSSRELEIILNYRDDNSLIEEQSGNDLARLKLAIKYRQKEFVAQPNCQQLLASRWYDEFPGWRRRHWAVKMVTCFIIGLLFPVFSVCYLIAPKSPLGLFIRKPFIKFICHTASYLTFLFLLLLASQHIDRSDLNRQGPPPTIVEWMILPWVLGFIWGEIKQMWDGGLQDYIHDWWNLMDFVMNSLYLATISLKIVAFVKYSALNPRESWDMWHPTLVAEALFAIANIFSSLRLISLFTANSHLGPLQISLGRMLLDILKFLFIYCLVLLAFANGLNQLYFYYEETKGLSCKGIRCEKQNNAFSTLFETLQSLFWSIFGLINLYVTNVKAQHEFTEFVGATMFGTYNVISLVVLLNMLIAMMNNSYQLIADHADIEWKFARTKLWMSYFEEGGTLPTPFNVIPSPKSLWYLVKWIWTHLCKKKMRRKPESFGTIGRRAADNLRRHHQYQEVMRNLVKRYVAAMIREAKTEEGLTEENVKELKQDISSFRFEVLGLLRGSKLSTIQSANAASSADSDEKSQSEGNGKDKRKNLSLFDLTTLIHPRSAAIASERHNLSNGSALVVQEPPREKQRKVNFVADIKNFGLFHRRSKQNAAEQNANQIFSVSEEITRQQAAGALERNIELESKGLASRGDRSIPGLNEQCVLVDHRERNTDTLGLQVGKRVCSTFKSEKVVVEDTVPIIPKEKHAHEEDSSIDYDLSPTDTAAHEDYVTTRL
# ASSAY EXPLANATION: mouse TRPC4 channel activators, dose response, cell-based, HEK293 TRPC4/mu-opioid, Fluo-4 calcium (AID 434937)
# Format: functional
Calls of active or inactive are those of the source.

COMPOUND	SYSTEM TESTED	EC50
O=C(N/N=C/c1cc([N+](=O)[O-])cc(Br)c1O)C12CC3CCC(CC(C3)C1)C2	UniProtKB Q9QUQ5	2.99 µM (active)
COc1ccc(C(CNC(=O)C(Cc2ccccc2)NC(N)=O)N(C)C)cc1 (centres undefined)	UniProtKB Q9QUQ5	0.473 µM (active)
Clc1ccc2sc(C3CCNCC3)nc2c1	UniProtKB Q9QUQ5	0.008 µM (active)
Cc1cccc(C(=O)NC(=S)NNC(=O)Cc2ccccc2)c1	UniProtKB Q9QUQ5	4.22 µM (active)
